Value source: patent US20260297060A1

- TARGET OR SYSTEM: BRAF V600E (Homo sapiens, UniProt P15056+Q96SW2, V600E)
- Construct: knock-in of the HiBiT tag to the endogenous BRAF V600E locus; host or cells: A375.10 (A375 clonal line, CRISPR HiBiT knock-in at the endogenous BRAF V600E locus)
- Sequence (P15056 whole entry V600E): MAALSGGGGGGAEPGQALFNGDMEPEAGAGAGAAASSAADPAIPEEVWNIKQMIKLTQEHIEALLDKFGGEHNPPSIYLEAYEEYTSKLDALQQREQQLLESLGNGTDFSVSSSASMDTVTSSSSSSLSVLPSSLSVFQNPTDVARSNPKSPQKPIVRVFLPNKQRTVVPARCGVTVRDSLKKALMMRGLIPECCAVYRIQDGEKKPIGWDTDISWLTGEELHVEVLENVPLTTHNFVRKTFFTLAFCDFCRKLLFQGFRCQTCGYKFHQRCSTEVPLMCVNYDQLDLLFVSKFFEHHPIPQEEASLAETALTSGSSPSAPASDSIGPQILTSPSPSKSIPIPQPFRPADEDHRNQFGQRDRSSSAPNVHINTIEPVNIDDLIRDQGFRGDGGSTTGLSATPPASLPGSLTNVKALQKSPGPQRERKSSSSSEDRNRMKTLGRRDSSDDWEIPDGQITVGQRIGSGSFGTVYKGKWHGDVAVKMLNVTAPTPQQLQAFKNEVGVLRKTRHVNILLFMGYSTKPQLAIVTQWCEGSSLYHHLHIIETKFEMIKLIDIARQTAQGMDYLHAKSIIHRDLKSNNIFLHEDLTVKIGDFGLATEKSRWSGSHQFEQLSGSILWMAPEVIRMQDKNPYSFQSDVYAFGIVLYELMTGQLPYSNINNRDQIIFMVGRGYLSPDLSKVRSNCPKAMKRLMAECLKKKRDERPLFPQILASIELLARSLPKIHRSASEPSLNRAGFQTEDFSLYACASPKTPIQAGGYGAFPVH
- Sequence (Q96SW2 whole entry): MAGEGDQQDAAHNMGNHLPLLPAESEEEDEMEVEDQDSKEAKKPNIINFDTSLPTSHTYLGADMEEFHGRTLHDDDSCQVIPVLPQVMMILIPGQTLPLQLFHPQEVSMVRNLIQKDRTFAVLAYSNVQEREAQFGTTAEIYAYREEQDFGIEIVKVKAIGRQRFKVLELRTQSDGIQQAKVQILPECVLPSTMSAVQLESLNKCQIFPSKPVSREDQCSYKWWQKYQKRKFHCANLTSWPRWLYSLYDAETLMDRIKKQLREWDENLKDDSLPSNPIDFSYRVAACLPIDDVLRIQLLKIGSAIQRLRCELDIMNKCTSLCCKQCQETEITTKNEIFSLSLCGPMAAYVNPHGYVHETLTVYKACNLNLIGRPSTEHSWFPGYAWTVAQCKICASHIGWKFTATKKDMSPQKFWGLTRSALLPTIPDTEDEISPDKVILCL
- Sequence (Q16531 whole entry partner): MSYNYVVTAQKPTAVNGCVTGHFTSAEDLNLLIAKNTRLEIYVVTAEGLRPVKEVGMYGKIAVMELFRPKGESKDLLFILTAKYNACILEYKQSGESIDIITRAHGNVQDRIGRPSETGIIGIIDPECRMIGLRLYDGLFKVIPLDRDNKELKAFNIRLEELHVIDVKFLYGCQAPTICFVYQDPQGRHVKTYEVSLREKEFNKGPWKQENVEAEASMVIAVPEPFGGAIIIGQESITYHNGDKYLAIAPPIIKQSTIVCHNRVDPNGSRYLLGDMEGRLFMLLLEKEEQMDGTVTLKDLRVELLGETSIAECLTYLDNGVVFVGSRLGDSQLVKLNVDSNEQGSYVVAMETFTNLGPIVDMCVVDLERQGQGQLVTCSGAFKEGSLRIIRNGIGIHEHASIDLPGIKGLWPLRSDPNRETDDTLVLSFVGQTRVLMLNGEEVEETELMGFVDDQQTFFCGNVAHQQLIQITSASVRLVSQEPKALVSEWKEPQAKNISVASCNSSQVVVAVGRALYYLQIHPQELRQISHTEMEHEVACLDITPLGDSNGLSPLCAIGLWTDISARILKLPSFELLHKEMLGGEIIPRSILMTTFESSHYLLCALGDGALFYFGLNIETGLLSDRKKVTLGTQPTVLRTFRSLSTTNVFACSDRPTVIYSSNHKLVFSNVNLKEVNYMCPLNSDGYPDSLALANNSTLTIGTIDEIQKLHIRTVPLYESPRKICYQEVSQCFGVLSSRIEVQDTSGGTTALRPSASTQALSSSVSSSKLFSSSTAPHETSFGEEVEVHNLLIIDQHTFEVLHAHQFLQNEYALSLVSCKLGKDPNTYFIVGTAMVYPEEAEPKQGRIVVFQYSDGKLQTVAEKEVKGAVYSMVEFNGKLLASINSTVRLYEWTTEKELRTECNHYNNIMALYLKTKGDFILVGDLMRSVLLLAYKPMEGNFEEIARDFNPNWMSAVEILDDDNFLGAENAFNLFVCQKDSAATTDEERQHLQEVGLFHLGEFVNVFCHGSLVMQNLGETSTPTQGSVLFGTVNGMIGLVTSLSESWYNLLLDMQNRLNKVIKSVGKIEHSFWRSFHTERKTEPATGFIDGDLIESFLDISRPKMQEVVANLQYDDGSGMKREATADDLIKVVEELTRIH
- EXPERIMENT DESCRIPTION: BRAF V600E HiBiT Degradation Assay
- Type: cell-based
- EXPERIMENTAL PARAMETERS: A375.10 cells, BRAF V600E, 2 hours; residual protein remaining; read-out: HiBiT-Degradation A375.10 BRAF 2 hours Emax
- Description: Compounds of this invention were tested for degradation of mutant BRAF V600E using the HiBiT assay, a luminescence-based assay for quantification of cellular protein levels using the Nano-Glo® HiBiT Lytic Detection System (Catalog No. N3050, Promega, Madison, WI USA). […] Data were analyzed with a 4-parameter logistic fit to generate sigmoidal dose-response curves. […]
Documented Emax across a set of molecules

Look over these answered cases.
Query: Tell us which Emax value is on record for N#Cc1c(NS(=O)(=O)C2CCCC2)ccc(F)c1Oc1ccc2ncn([C@H]3COC4(CCN(C5CCC(c6ccc(NC7CCC(=O)NC7=O)cc6F)CC5)CC4)C3)c(=O)c2c1 (single isomer, unassigned) [Compound 136]
Response: < 50%

Query: Tell us which Emax value is on record for CCN(C)S(=O)(=O)Nc1ccc(F)c(Oc2ccc3ncn(CC4CCN(C5CCC(c6cc7c(cc6F)c(N6CCC(=O)NC6=O)nn7C)CC5)CC4)c(=O)c3c2)c1C#N (single isomer, unassigned) [Compound 126]
Response: < 50%

Query: Tell us which Emax value is on record for CCN(C)S(=O)(=O)Nc1ccc(F)c(Oc2ccc3ncn([C@@H]4CCC5(CCN(C6CCC(c7ccc(NC8CCC(=O)NC8=O)cc7F)CC6)CC5)C4)c(=O)c3c2)c1C#N (single isomer, unassigned) [Compound 22]
Response: 50 to 90%

Query: Tell us which Emax value is on record for Cn1nc(N2CCC(=O)NC2=O)c2cc(F)c(N3CC4(CC(N5CCC6(CC5)C[C@@H](n5cnc7ccc(Oc8c(F)ccc(NS(=O)(=O)N9C[C@H]%10C[C@H]%10C9)c8C#N)cc7c5=O)CO6)C4)C3)cc21 [Compound 241]
Response: < 50%

We next turn to a different molecule, shown below.
Query: Tell us which Emax value is on record for CCN(C)S(=O)(=O)Nc1ccc(F)c(Oc2ccc3ncn([C@H]4COC5(CCN(C6CCC(c7cc8c(cc7F)c(N7CCC(=O)NC7=O)nn8C)CC6)CC5)C4)c(=O)c3c2)c1F (single isomer, unassigned) [Compound 71]
Response: < 50%

---

Documented GI50 across a set of compounds
- Tested on: A375-NRAS^Q61K cells
- EXPERIMENT DESCRIPTION: CTGlo Cell Viability Assay, A375-NRAS^Q61K (A375.11) cells, 96 hours
- Format: cell-based, human
- EXPERIMENTAL PARAMETERS: Homo sapiens, 96 h, A375.11 (A375-NRAS^Q61K) cells

Query: Print A375-NRAS^Q61K cells GI50 for CN(CCO)S(=O)(=O)Nc1ccc(F)c(Oc2ccc3ncc([C@H]4COC5(CCN(C6CCC(c7cc8c(cc7F)c(N7CCC(=O)NC7=O)nn8C)CC6F)CC5)C4)nc3c2)c1C#N (single isomer, unassigned) .
Response: 1000 to 10000 nM

Query: Print A375-NRAS^Q61K cells GI50 for N#Cc1c(NS(=O)(=O)N2CC[C@@H](F)C2)ccc(F)c1Oc1ccc2ncn(C3COC4(CCN(C5CCC(c6ccc(NC7CCC(=O)NC7=O)cc6F)CC5)CC4)C3)c(=O)c2c1 (single isomer, unassigned) .
Response: < 1000 nM

Query: Print A375-NRAS^Q61K cells GI50 for CCN(C)S(=O)(=O)Nc1ccc(F)c(Oc2ccc3ncn(C4CC5(CCN(C6CCC(c7cc8c(cc7F)c(N7CCC(=O)NC7=O)nn8C)CC6)CC5)C4)c(=O)c3c2)c1F (single isomer, unassigned) .
Response: 1000 to 10000 nM

---
Query: Print A375-NRAS^Q61K cells GI50 for CN(CCO)S(=O)(=O)Nc1ccc(F)c(Oc2ccc3ncn(C4CC5(CCN(C6CC7(C6)CN(c6cc8c(cc6F)c(N6CCC(=O)NC6=O)nn8C)C7)CC5)C4)c(=O)c3c2)c1F (stereo not shown) .
Response: 1000 to 10000 nM

Query: Print A375-NRAS^Q61K cells GI50 for CCN(C)S(=O)(=O)Nc1ccc(F)c(Oc2ccc3ncn([C@H]4COC5(CCN(C6CC(c7cc8c(cc7F)c(N7CCC(=O)NC7=O)nn8C)C6)CC5)C4)c(=O)c3c2)c1C#N (single isomer, unassigned) .
Response: < 1000 nM

Query: Print A375-NRAS^Q61K cells GI50 for CCN(C)S(=O)(=O)Nc1ccc(F)c(Oc2ccc3ncc([C@H]4COC5(CCN(C6CCC(c7ccc(NC8CCC(=O)NC8=O)cc7F)CC6)CC5)C4)nc3c2)c1C#N (single isomer, unassigned) .
Response: < 1000 nM

Query: Print A375-NRAS^Q61K cells GI50 for CCN(C)S(=O)(=O)Nc1ccc(F)c(Oc2ccc3ncc(C4CC5(CCN(C6CC7(C6)CN(c6cc8c(cc6F)c(N6CCC(=O)NC6=O)nn8C)C7)CC5)C4)nc3c2)c1C#N (stereo not shown) .
Response: < 1000 nM

---

Documented GI50 across a set of compounds
- Tested on: A375-NRAS^Q61K cells
- EXPERIMENT DESCRIPTION: CTGlo Cell Viability Assay, A375-NRAS^Q61K (A375.11) cells, 96 hours
- Type: cell-based, human
- EXPERIMENTAL PARAMETERS: Homo sapiens, 96 h, A375.11 (A375-NRAS^Q61K) cells

Look over these answered cases.
Query: Tell us which GI50 value is on record for CCN(C)S(=O)(=O)Nc1ccc(F)c(Oc2ccc3ncn([C@H]4COC5(CCN(CC6CN(c7cc8c(cc7F)c(N7CCC(=O)NC7=O)nn8C)C6)CC5)C4)c(=O)c3c2)c1C#N
Response: 1000 to 10000 nM

Query: Tell us which GI50 value is on record for CCN(C)S(=O)(=O)Nc1ccc(F)c(Oc2ccc3ncc([C@H]4COC5(CCN(C6CC7(C6)CN(c6cc8c(cc6F)c(N6CCC(=O)NC6=O)nn8C)C7)CC5)C4)nc3c2)c1C#N
Response: < 1000 nM

Query: Tell us which GI50 value is on record for CCN(C)S(=O)(=O)Nc1ccc(F)c(Oc2ccc3ncc(OCC4(F)CCN(C5CCC(c6cc7c(cc6F)c(N6CCC(=O)NC6=O)nn7C)CC5)CC4)nc3c2)c1C#N (single isomer, unassigned)
Response: 1000 to 10000 nM

We next turn to a different compound, shown below.
Query: Tell us which GI50 value is on record for Cn1nc(N2CCC(=O)NC2=O)c2cc(F)c(N3CC4(CC(N5CCC6(CC5)CC(n5cnc7ccc(Oc8c(F)ccc(NS(=O)(=O)N9CC[C@@H](F)C9)c8C#N)cc7c5=O)C6)C4)C3)cc21
Response: < 1000 nM

---

- System: A375-NRAS^Q61K cells
- EXPERIMENT DESCRIPTION: CTGlo Cell Viability Assay, A375-NRAS^Q61K (A375.11) cells, 96 hours
- Format: cell-based, human
- EXPERIMENTAL PARAMETERS: Homo sapiens, 96 h, A375.11 (A375-NRAS^Q61K) cells
PROPERTY: GI50

Query: Print A375-NRAS^Q61K cells GI50 for CCN(C)S(=O)(=O)Nc1ccc(F)c(Oc2ccc3ncn([C@H]4CCC5(CCN(C6CCC(c7cc8c(cc7F)c(N7CCC(=O)NC7=O)nn8C)CC6)CC5)C4)c(=O)c3c2)c1C#N (single isomer, unassigned) .
Response: < 1 µM

Query: Print A375-NRAS^Q61K cells GI50 for CCN(C)S(=O)(=O)Nc1ccc(F)c(Oc2ccc3ncn([C@H]4COC5(CCN(C6CCC(c7cc8c(cc7F)c(N7CCC(=O)NC7=O)nn8C)CC6O)CC5)C4)c(=O)c3c2)c1C#N (single isomer, unassigned) .
Response: < 1 µM

---
Query: Print A375-NRAS^Q61K cells GI50 for CCN(C)S(=O)(=O)Nc1ccc(F)c(Oc2ccc3ncn([C@@H]4CCC5(CCN(C6CCC(c7cc8c(cc7F)c(N7CCC(=O)NC7=O)nn8C)CC6)CC5)C4)c(=O)c3c2)c1C#N (single isomer, unassigned) .
Response: 1 to 10 µM
